molecular target: UniProt:P41968; test: Agonist activity at human MC3R expressed in HEK2936E cells assessed as cAMP production in presence of IBMX by time resolved fluorescence assay
Sequence (P41968 whole entry): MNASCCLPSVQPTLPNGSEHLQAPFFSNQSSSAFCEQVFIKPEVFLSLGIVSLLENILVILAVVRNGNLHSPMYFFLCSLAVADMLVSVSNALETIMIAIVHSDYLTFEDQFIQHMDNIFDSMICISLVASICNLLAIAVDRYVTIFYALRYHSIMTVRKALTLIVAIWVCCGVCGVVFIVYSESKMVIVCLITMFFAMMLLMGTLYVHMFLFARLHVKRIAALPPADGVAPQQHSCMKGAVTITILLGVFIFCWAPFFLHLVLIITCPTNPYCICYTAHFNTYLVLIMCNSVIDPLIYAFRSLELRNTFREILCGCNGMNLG
*1 amine or outer side, *2 acyl side, *3 side chain or, on linkers, in order; H or OH if unused. Where a SMILES comes first, the peptide text is derived from it. Bridges are numbered along the chain shown (N, C = ends). [ ]: non-standard residue; d: D form. X3 = NC(=O)/C(=C(\C(=O)O)[*:2])[*:1]; oXylylene = c1ccc(C[*:2])c(C[*:1])c1; Nle = CCCC[C@H](N)C(=O)O
Record form. Attribute: EC50. Fill in for each entry.
Give just the number in nM; leave the unit off.

[ask] Which EC50 value is on record for CCCC[C@@H]1NC(=O)[C@@H]2CS/C(C(=O)O)=C(/C(N)=O)SC[C@H](NC(=O)[C@H](CCCNC(=N)N)NC(=O)[C@H](CC(=O)O)NC(=O)[C@H](Cc3c[nH]c4ccccc34)NC(=O)[C@H](CCCNC(=N)N)NC(=O)[C@H](Cc3ccccc3)NC(=O)[C@H](Cc3cnc[nH]3)NC(=O)CNC1=O)C(=O)N[C@@H](Cc1cnc[nH]1)C(=O)N[C@@H](Cc1ccccc1)C(=O)N[C@@H](CCCNC(=N)N)C(=O)N[C@@H](Cc1c[nH]c3ccccc13)C(=O)N[C@@H](CCCNC(=N)N)C(=O)N2 (cyclo(CHFRWRC[Nle]GHFRWDR); linker 1-7 via X3) ?
[reply] 2.57

[ask] Any idea what EC50 was measured for CCCC[C@@H]1NC(=O)[C@@H]2CSCc3ccccc3CSC[C@H](NC(=O)[C@H](CCCNC(=N)N)NC(=O)[C@H](CC(=O)O)NC(=O)[C@H](Cc3c[nH]c4ccccc34)NC(=O)[C@H](CCCNC(=N)N)NC(=O)[C@H](Cc3ccccc3)NC(=O)[C@H](Cc3cnc[nH]3)NC(=O)CNC1=O)C(=O)N[C@@H](Cc1cnc[nH]1)C(=O)N[C@@H](Cc1ccccc1)C(=O)N[C@@H](CCCNC(=N)N)C(=O)N[C@@H](Cc1c[nH]c3ccccc13)C(=O)N[C@@H](CCCNC(=N)N)C(=O)N2 (cyclo(CHFRWRC[Nle]GHFRWDR); linker 1-7 via oXylylene) ?
[reply] 0.347
